Measured normalized RNA/DNA level without ligand (log10) of individual entries
B1: library; a variant is named by its letters at N, in order (parent)
chain: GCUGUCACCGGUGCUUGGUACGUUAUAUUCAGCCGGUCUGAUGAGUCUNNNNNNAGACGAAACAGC

- Variants of: B1
- test-details: normalized RNA/DNA level without ligand (relative to sTRSVctl = 100) (log10 (% of sTRSVctl)); HEK293T overexpressing SLC46A1; higher = less ribozyme self-cleavage, higher mRNA level
- measurement-parameters: without (6R,S)-folinic acid; ligand present: no
attribute-measured: normalized RNA/DNA level without ligand (log10)

- AUGCCA: 2.01
- UAAAAU: 1.94
- CCAAAG: 1.9
- GAUUUA: 2.02
